Below are pIC50 values for human mPGES-1 (Homo sapiens, UniProt O14684) collected from several publications.
pIC50: −log10 of the molar value.

{"compound": "COCc1nc2c(C(=O)Nc3cccc(Cl)c3C)cc(NC(=O)c3ccccc3S(C)(=O)=O)cc2[nH]1", "pIC50": 7.37}
{"compound": "CC(C)(C)C#Cc1ccc(/C=C/S(=O)(=O)Nc2ccccc2S(N)(=O)=O)cc1", "pIC50": 7.26}
{"compound": "COc1c(C)ccc(Cl)c1-c1nc(O)nc(-c2ccc(C(F)(F)F)cc2)n1", "pIC50": 6.85}
{"compound": "NS(=O)(=O)c1ccccc1S(=O)(=O)NC(=O)c1cnc2ccccc2c1", "pIC50": 4.96}
{"compound": "Cc1cccc(C)c1-c1nc(O)nc(-c2ccc(OCc3ccccc3)cc2)n1", "pIC50": 7.00}
{"compound": "NS(=O)(=O)c1ccccc1NS(=O)(=O)/C=C/c1ccc(-c2ccc(C(F)(F)F)cc2)cc1", "pIC50": 6.74}
{"compound": "Cc1ccc(NS(=O)(=O)c2cccc(Cl)c2Cl)c(S(N)(=O)=O)c1", "pIC50": 5.03}
{"compound": "COc1ccc(S(=O)(=O)NC(=O)c2ccc(-c3cc4ccccc4o3)cc2)c(S(N)(=O)=O)c1", "pIC50": 6.28}
{"compound": "Cc1cccc(C)c1-c1nc(O)nc(-c2ccc(C#Cc3ccccc3)cc2)n1", "pIC50": 8.22}
{"compound": "CC(C)(C)c1ccc(CCS(=O)(=O)Nc2cc(F)ccc2S(N)(=O)=O)cc1", "pIC50": 6.52}
{"compound": "COc1cc(Cl)ccc1CCS(=O)(=O)Nc1ccc(C)cc1S(N)(=O)=O", "pIC50": 6.25}
{"compound": "Cc1cccc(COc2cccc(C(F)(F)F)c2-c2nc(O)nc(-c3ccc(C#Cc4ccc(OC(F)(F)F)cc4)cc3)n2)n1", "pIC50": 7.46}
{"compound": "NS(=O)(=O)c1ccccc1S(=O)(=O)NC(=O)c1ccc(-c2cc3ccccc3o2)nc1", "pIC50": 6.74}
{"compound": "NS(=O)(=O)c1ccccc1NS(=O)(=O)c1cccc(-c2ccc(Cl)cc2Cl)c1", "pIC50": 5.74}
{"compound": "CC(C)(C(=O)NCc1ccc(Cl)c(-c2nc(O)nc(-c3ccccc3)n2)c1)c1ccccc1", "pIC50": 8.09}
{"compound": "CC(C)(O)C#Cc1cc(C(=O)NS(=O)(=O)c2ccccc2S(N)(=O)=O)ccc1OCc1ccccc1", "pIC50": 6.96}
{"compound": "CC(O)Cc1ccc(Cl)c(-c2nc(O)nc(-c3ccc(OCC(C)(C)C)cc3)n2)c1 (centres unmarked)", "pIC50": 7.41}
{"compound": "NS(=O)(=O)c1ccccc1S(=O)(=O)NC(=O)c1ccc(C#CC2CCCC2)cc1", "pIC50": 7.85}
{"compound": "Oc1nc(-c2ccc(C#CC3CCCCC3)cc2)nc(-c2c(Cl)cccc2OCc2ccc(C(F)(F)F)cn2)n1", "pIC50": 7.29}
{"compound": "CCCC(C)C#Cc1ccc(C(=O)NS(=O)(=O)c2ccccc2S(N)(=O)=O)cc1OC (centres unmarked)", "pIC50": 7.46}
{"compound": "NS(=O)(=O)c1ccccc1S(=O)(=O)NC(=O)c1ccc(Br)cc1Cl", "pIC50": 5.26}
{"compound": "CSc1ccc(-c2nc(O)nc(-c3cc(CNC(=O)C(C)(C)C(F)(F)F)ccc3Cl)n2)cc1", "pIC50": 9.22}
{"compound": "Cc1ccc(C)c(-c2nc(O)nc(-c3ccc(C(F)(F)F)cc3)n2)c1", "pIC50": 6.86}
{"compound": "CCOc1cccc(-c2nc(O)nc(-c3cc(CNC(=O)C4(C(F)(F)F)CCCC4)ccc3Cl)n2)c1", "pIC50": 9.30}
{"compound": "CCCc1ccc(-c2nc(O)nc(-c3cc(CNC(=O)C(C)(C)C)ccc3Cl)n2)cc1", "pIC50": 9.22}
{"compound": "COC(C)(C)c1cc2cc(C(=O)NS(=O)(=O)c3ccccc3S(N)(=O)=O)ccc2o1", "pIC50": 4.92}
{"compound": "NS(=O)(=O)c1ccccc1NS(=O)(=O)c1ccc(C(F)(F)F)cc1", "pIC50": 5.18}
{"compound": "NS(=O)(=O)c1cc(O)ccc1S(=O)(=O)NC(=O)c1ccc(-c2cc3ccccc3o2)cc1", "pIC50": 7.59}
{"compound": "CC(C)Cc1ccc(-c2nc(O)nc(-c3cc(CNC(=O)C(C)(C)C)ccc3Cl)n2)cc1", "pIC50": 9.00}
{"compound": "CCC[C@H](C)Oc1ccc(-c2nc(O)nc(-c3cc(CNC(=O)C(C)(C)C(F)(F)F)ccc3Cl)n2)cc1", "pIC50": 8.46}
{"compound": "NS(=O)(=O)c1ccc(F)cc1NS(=O)(=O)/C=C/c1ccc2ccccc2c1", "pIC50": 7.04}
{"compound": "C[C@H](Oc1cccc(Cl)c1-c1nc(O)nc(-c2ccc(OCC(C)(C)C)cc2)n1)c1ccccn1", "pIC50": 7.92}
